Tested on: HEK-293T
Test: Multiplex assay against HEK293T
Type: toxicity, cell-based
Conditions: human, 24 h, 1 µM, compound concentration 1 uM, replicate 2
assay readout: Population Apoptotic (%)

[[record]]
compound = "O=c1[nH]c2ccccc2n1C1CCN(Cc2ccc(-c3[nH]c4cc5ncnc5cc4nc3-c3ccccc3)cc2)CC1"
assay_readout = "Population Apoptotic (%)"
reported_result = "7%"

[[record]]
compound = "CCCSc1nc(N[C@@H]2C[C@H]2c2ccc(F)c(F)c2)c2nnn([C@@H]3C[C@H](OCCO)[C@@H](O)[C@H]3O)c2n1 [TICAGRELOR]"
assay_readout = "Population Apoptotic (%)"
reported_result = "18%"

[[record]]
compound = "C[C@]12CC[C@@H]3c4ccc(O)cc4CC[C@H]3[C@@H]1CC[C@@H]2O [ESTRADIOL]"
assay_readout = "Population Apoptotic (%)"
reported_result = "6%"

[[record]]
compound = "CCc1nn(CCCN2CCN(c3cccc(Cl)c3)CC2)c(=O)n1CCOc1ccccc1.Cl [NEFAZODONE HYDROCHLORIDE]"
assay_readout = "Population Apoptotic (%)"
reported_result = "23%"

[[record]]
compound = "CN1CCN(Cc2ccc(Nc3ncc(Cl)c(Nc4ccccc4S(=O)(=O)N(C)C)n3)cc2)CC1 [DUBERMATINIB]"
assay_readout = "Population Apoptotic (%)"
reported_result = "27%"

[[record]]
compound = "O=c1cc(N2CCOCC2)oc2c(-c3cccc4c3sc3ccccc34)cccc12"
assay_readout = "Population Apoptotic (%)"
reported_result = "16%"

[[record]]
compound = "CC(C)c1noc(N2CCC(COc3ccc(-c4ccc(S(C)(=O)=O)cc4)nc3)CC2)n1 [GSK-1292263]"
assay_readout = "Population Apoptotic (%)"
reported_result = "15%"

[[record]]
compound = "CNC(=O)Nc1ccc2c(c1)[C@@]1(CC2)OC(=O)N(CC(=O)N(Cc2ccc(F)cc2)[C@@H](C)C(F)(F)F)C1=O [A-486]"
assay_readout = "Population Apoptotic (%)"
reported_result = "6%"

[[record]]
compound = "Cc1nc(N2CC[C@H](O)C2)ncc1-c1cc(C(F)(F)F)cc2[nH]ncc12"
assay_readout = "Population Apoptotic (%)"
reported_result = "3%"

[[record]]
compound = "Cc1c[nH]c2nccc(Oc3c(F)cc(Nc4cc(Cl)nc(N)n4)cc3F)c12 [BAY-549]"
assay_readout = "Population Apoptotic (%)"
reported_result = "18%"

[[record]]
compound = "COc1ccc(-c2ccc3ncc4c(c3c2)n(-c2ccc(N3CCNCC3)c(C(F)(F)F)c2)c(=O)n4C)cn1.O=C(O)/C=C\\C(=O)O [BGT-226]"
assay_readout = "Population Apoptotic (%)"
reported_result = "84%"

[[record]]
compound = "C=CC(=O)Nc1ccc2[nH]c(=O)n(C3CCN(Cc4ccc(-c5nc6cc[nH]c(=O)c6cc5-c5ccccc5)cc4)CC3)c2c1 [Borussertib]"
assay_readout = "Population Apoptotic (%)"
reported_result = "11%"

[[record]]
compound = "CC(C)(C)NC[C@H](O)COc1nsnc1N1CCOCC1 [TIMOLOL]"
assay_readout = "Population Apoptotic (%)"
reported_result = "8%"

[[record]]
compound = "CC(C)OC(=O)N1CCC(Oc2ncnc3c2cnn3-c2ccc(S(C)(=O)=O)cc2F)CC1"
assay_readout = "Population Apoptotic (%)"
reported_result = "11%"

[[record]]
compound = "CC(C)NC(=O)N1CC[C@H](NC2=Nc3cc(F)ccc3N(CC(F)F)c3ccc(Cl)cc32)C1"
assay_readout = "Population Apoptotic (%)"
reported_result = "15%"

[[record]]
compound = "O=C(c1cc2c(cc1F)OC(c1ccc(F)cc1)(c1ccc(Cl)cc1Cl)O2)N1CCOCC1 (configuration not stated)"
assay_readout = "Population Apoptotic (%)"
reported_result = "14%"

[[record]]
compound = "COc1cc(Nc2nccc(-c3cnn4nc(OC)ccc34)n2)cc(C(F)(F)F)c1"
assay_readout = "Population Apoptotic (%)"
reported_result = "8%"

